# System: NCI/ADR-RES ovarian
# test_name: NCI-60 one-dose screen, 48 h
# conditions_used: 10 µM unless noted
# Description: Growth inhibition of the NCI/ADR-RES human […] tumor cell line is measured as a screen for anti-cancer activity. Cells are grown in 96 well plates and exposed to the test compound for 48 hours. Compounds are tested at a single concentration, which is 10^-5 M for most compounds. The reported endpoint is percent growth (GI% or GIPRCNT), where numbers from 0 - 100% represent growth inhibition, and numbers from -100% - 0 represent cell death. For example, a value of 40 represents 60% growth inhibition. […]
Compounds without any hit were thinned out: in the full panel of roughly 83,000, 20% have a hit. Calls of active or inactive are those of the source. Rule for the calls: active = growth percent below 10; inactive = the rest.
Possible outcomes: label 1 for active, label 0 for inactive

- compound: "Cc1cc(C)c(O)c(CNCCCNCc2cc(C)cc(C)c2O)c1"
  test_system: "NCI/ADR-RES ovarian"
  answer_label: "label 0"
- compound: "Cc1ccc(NC(=S)/N=c2/n(-c3ccccc3)nc3n2CCN3C2=NCCN2)cc1"
  test_system: "NCI/ADR-RES ovarian"
  answer_label: "label 0"
- compound: "Cc1cccc(/C=C2\\N=C(c3ccccc3)N(c3ccc(S(N)(=O)=O)cc3)C2=O)c1"
  test_system: "NCI/ADR-RES ovarian"
  answer_label: "label 0"
- compound: "Cn1ncc2c(Nc3ccc(O)cc3)nc(Cl)nc21"
  test_system: "NCI/ADR-RES ovarian"
  answer_label: "label 0"
- compound: "C=CCCCCOc1ccccc1-c1cnc(OCCCCC=C)n1C"
  test_system: "NCI/ADR-RES ovarian"
  answer_label: "label 0"
- compound: "CCCCN(CC)CC(CC)Nc1cc(OC)cc2cccnc12 (stereo not given)"
  test_system: "NCI/ADR-RES ovarian"
  answer_label: "label 0"
- compound: "C=C(C)[C@@H]1CC[C@]2(C)[C@H](CC[C@@H]3[C@@H]([C@@](C)(O)CCC=C(C)C)CC[C@]32C)[C@@]1(C)CCC(=O)O"
  test_system: "NCI/ADR-RES ovarian"
  answer_label: "label 1"
- compound: "COC(=O)c1cc2c(=O)[nH]cc3c2c(n1)CCC3"
  test_system: "NCI/ADR-RES ovarian"
  answer_label: "label 0"
- compound: "CCN(CC)c1ccc(/C=C/c2ccc3cc(C)ccc3[n+]2CC)cc1"
  test_system: "NCI/ADR-RES ovarian"
  answer_label: "label 0"
- compound: "Clc1ccc(N2CCN(CCCN3CCN(c4cccc(Cl)c4)CC3)CC2)cc1"
  test_system: "NCI/ADR-RES ovarian"
  answer_label: "label 0"
